Origin of the recorded values: patent US20240116985A1

Target: full-length beta-Catenin (Uniprot ID P35222) (Homo sapiens, UniProt P35222)
Construct: 10 nM full-length beta-Catenin (Uniprot ID P35222)
Sequence (P35222 1-781): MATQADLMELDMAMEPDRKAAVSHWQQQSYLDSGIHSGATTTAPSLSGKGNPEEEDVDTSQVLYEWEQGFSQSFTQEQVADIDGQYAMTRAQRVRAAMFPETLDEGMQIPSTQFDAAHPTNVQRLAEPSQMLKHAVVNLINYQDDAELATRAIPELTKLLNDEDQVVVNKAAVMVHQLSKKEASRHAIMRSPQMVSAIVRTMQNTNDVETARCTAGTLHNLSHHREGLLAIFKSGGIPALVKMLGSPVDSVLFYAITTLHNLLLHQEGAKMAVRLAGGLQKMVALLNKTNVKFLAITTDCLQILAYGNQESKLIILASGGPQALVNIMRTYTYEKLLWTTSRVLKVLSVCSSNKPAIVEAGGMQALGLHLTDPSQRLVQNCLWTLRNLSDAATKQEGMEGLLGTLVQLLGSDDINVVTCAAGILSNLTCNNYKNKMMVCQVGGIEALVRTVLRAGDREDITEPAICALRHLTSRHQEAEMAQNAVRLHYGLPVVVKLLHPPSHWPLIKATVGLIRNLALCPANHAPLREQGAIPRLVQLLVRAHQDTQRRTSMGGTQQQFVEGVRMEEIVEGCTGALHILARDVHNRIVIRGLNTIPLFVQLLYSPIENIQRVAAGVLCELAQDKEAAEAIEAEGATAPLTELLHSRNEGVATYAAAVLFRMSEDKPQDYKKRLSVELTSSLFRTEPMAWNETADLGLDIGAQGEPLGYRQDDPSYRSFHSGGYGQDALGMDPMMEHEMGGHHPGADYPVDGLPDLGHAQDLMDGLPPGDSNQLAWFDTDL
Assay: Fluorescence polarization IC50 (beta-catenin / 5FAM-TCF4 10-53 competition)
Format: binding
Conditions: fluorescence polarization, beta-catenin; read-out: FP EC50
property.measured: IC50 (nM)
Give a bare numeral; the unit nM is implied.

// known answers, use as guide
CCN(CC(=O)O)C[C@@H]1NC(=O)[C@H](CC(=O)O)NC(=O)C2(CCCC=CCCCOC(=O)N3CC[C@@](C(=O)N[C@@H](Cc4ccsc4)C(=O)N[C@@H](Cc4csc5ccccc45)C(=O)N[C@@H](CCC(N)=O)C(N)=O)(C3)NC(=O)[C@H](CC(C)C)NC(=O)[C@H](Cc3ccccc3)NC(=O)[C@H](C)NC(=O)[C@H](C)NC1=O)CCCC=CC[C@]1(CCCN1C(C)=O)C(=O)N[C@@H](CC(=O)O)C(=O)N[C@@H](CC(C)(C)C)C(=O)N2 (stereo partly shown) [I-972]    1820
CC(=O)N1CCC[C@]12CC=CCCCC1(CCCC=CCCCOC(=O)N3CC[C@@](C(=O)N[C@@H](Cc4ccccc4)C(=O)N[C@@H](Cc4csc5ccccc45)C(=O)N[C@@H](CCC(N)=O)C(N)=O)(C3)NC(=O)[C@H](CC(C)C)NC(=O)[C@H](Cc3ccccc3)NC(=O)[C@H](C)NC(=O)[C@H](C)NC(=O)[C@H](CCC(=O)O)NC(=O)[C@H](CC(=O)O)NC1=O)NC(=O)[C@H](CC(C)(C)C)NC(=O)[C@H](CC(=O)O)NC2=O (stereo partly shown) [I-1073]    409
CC(=O)N1CCC[C@]12CC=CCCCC1(CCCC=CCCCCCC[C@@](C)(C(=O)N[C@@H](Cc3ccccc3)C(=O)N[C@@H](Cc3csc4ccccc34)C(=O)N[C@@H](Cc3c[nH]cn3)C(N)=O)NC(=O)[C@H](CCC(N)=O)NC(=O)[C@H](Cc3ccccc3)NC(=O)[C@H](C)NC(=O)[C@H](C)NC(=O)[C@H](CC(=O)O)NC(=O)[C@H](CC(=O)O)NC1=O)NC(=O)[C@H](C)NC(=O)[C@H](CC(=O)O)NC2=O (stereo partly shown) [I-360]    146

*Q* full-length beta-Catenin (Uniprot ID P35222) (Homo sapiens, UniProt P35222) / IC50 / CC(=O)N1CCC[C@]12CC=CCCCC1(CCCC=CCOC(=O)N(C)CCC[C@@](C)(C(=O)N[C@@H](Cc3ccccc3)C(=O)N[C@@H](Cc3c[nH]c4ccccc34)C(=O)N[C@@H](CCC(N)=O)C(N)=O)NC(=O)[C@H](C(C)C)NC(=O)[C@H](Cc3ccccc3)NC(=O)[C@H](C)NC(=O)[C@H](C)NC(=O)[C@H](CCC(=O)O)NC(=O)[C@H](CC(=O)O)NC1=O)NC(=O)[C@H](C)NC(=O)[C@H](CC(=O)O)NC2=O (stereo partly shown) [I-131] : value?
*A* 2160

*Q* // repeat for CC(=O)N1CCC[C@]12CC=CCCCC1(CCCC=CCCCOC(=O)N3CC[C@@](C(=O)N[C@@H](Cc4ccccc4Cl)C(=O)N[C@@H](Cc4csc5ccccc45)C(=O)N[C@@H](CCC(N)=O)C(N)=O)(C3)NC(=O)[C@H](CC(C)C)NC(=O)[C@H](Cc3ccccc3)NC(=O)[C@H](C)NC(=O)[C@H](C)NC(=O)[C@H](CCC(=O)O)NC(=O)[C@H](CC(=O)O)NC1=O)NC(=O)[C@H](CC1CCCCC1)NC(=O)[C@H](CC(=O)O)NC2=O (stereo partly shown) [I-1077] and report
*A* 324

*Q* What do we get for CCN(CC(=O)O)C[C@@H]1NC(=O)[C@H](CC(=O)O)NC(=O)C2(CCCC=CCCCOC(=O)N3CC[C@@](C(=O)N[C@@H](Cc4ccsc4)C(=O)N[C@@H](Cc4csc5ccccc45)C(=O)N[C@@H](CCC(N)=O)C(N)=O)(C3)NC(=O)[C@H](CO)NC(=O)[C@H](Cc3ccccc3)NC(=O)[C@H](C)NC(=O)[C@H](C)NC1=O)CCCC=CC[C@]1(CCCN1C(C)=O)C(=O)N[C@@H](CC(=O)O)C(=O)N[C@@H](CC(C)(C)C)C(=O)N2 (stereo partly shown) [I-966] ?
*A* 2020

*Q* Entry CC(=O)N1CCC[C@]12CC=CCCCC1(CCCC=CCCCOC(=O)N3CC[C@@](C(=O)N[C@@H](Cc4ccsc4)C(=O)N[C@@H](Cc4csc5ccccc45)C(N)=O)(C3)NC(=O)[C@H](CC(N)=O)NC(=O)[C@H](Cc3ccccc3)NC(=O)[C@H](C)NC(=O)[C@H](C)NC(=O)[C@H]([C@@H](C)O)NC(=O)[C@H](CC(=O)O)NC1=O)NC(=O)[C@H](CC(C)(C)C)NC(=O)[C@H](CC(=O)O)NC2=O (stereo partly shown) [I-860] please
*A* 61

*Q* Then CC(=O)N1CCC[C@]12CC=CCCCC1(CCCC=CCCCOC(=O)N3CC[C@@](C(=O)N[C@@H](Cc4ccsc4)C(=O)N[C@@H](Cc4csc5ccccc45)C(=O)N[C@@H](CO)C(N)=O)(C3)NC(=O)[C@H](CO)NC(=O)[C@H](Cc3ccccc3)NC(=O)[C@H](C)NC(=O)[C@H](C)NC(=O)[C@H](CN(CC(=O)O)CC(F)(F)F)NC(=O)[C@H](CC(=O)O)NC1=O)NC(=O)[C@H](CC(C)(C)C)NC(=O)[C@H](CC(=O)O)NC2=O (stereo partly shown) [I-954] ?
*A* 900

*Q* Try the compound CC(=O)N1CCC[C@]12CC=CCCCC1(CCCC=CCCCOC(=O)N3CC[C@@](C(=O)N[C@@H](Cc4ccccc4Cl)C(=O)N[C@@H](Cc4csc5ccccc45)C(=O)N[C@@H](CC(C)C)C(N)=O)(C3)NC(=O)[C@H](CC(C)C)NC(=O)[C@H](Cc3ccccc3)NC(=O)[C@H](C)NC(=O)[C@H](C)NC(=O)[C@H](CC(=O)O)NC(=O)[C@H](CC(=O)O)NC1=O)NC(=O)[C@H](CC(C)(C)C)NC(=O)[C@H](CC(=O)O)NC2=O (stereo partly shown) [I-1417]
*A* 198

*Q* Do the same for CC(=O)N1CCC[C@]12CC=CCCCC1(CCCC=CCCCCCC[C@@](C)(C(=O)N[C@@H](Cc3ccccc3)C(=O)N[C@@H](Cc3c[nH]c4ccccc34)C(=O)N[C@@H](CCC(N)=O)C(N)=O)NC(=O)[C@H](C(C)C)NC(=O)[C@H](Cc3cccc(C)c3)NC(=O)[C@H](C)NC(=O)[C@H](C)NC(=O)[C@H](CCC(=O)O)NC(=O)[C@H](CC(=O)O)NC1=O)NC(=O)[C@H](C)NC(=O)[C@H](CC(=O)O)NC2=O (stereo partly shown) [I-207] please
*A* 1750
